Molecular target: GluA2/3 AMPA receptor subunits (flip isoform) (Homo sapiens, UniProt P42262+P42263)
Construct: expressed in transfected cells; host or cells: HEK293
Sequence (P42262 25-883 isoform P42262-2 limits assumed): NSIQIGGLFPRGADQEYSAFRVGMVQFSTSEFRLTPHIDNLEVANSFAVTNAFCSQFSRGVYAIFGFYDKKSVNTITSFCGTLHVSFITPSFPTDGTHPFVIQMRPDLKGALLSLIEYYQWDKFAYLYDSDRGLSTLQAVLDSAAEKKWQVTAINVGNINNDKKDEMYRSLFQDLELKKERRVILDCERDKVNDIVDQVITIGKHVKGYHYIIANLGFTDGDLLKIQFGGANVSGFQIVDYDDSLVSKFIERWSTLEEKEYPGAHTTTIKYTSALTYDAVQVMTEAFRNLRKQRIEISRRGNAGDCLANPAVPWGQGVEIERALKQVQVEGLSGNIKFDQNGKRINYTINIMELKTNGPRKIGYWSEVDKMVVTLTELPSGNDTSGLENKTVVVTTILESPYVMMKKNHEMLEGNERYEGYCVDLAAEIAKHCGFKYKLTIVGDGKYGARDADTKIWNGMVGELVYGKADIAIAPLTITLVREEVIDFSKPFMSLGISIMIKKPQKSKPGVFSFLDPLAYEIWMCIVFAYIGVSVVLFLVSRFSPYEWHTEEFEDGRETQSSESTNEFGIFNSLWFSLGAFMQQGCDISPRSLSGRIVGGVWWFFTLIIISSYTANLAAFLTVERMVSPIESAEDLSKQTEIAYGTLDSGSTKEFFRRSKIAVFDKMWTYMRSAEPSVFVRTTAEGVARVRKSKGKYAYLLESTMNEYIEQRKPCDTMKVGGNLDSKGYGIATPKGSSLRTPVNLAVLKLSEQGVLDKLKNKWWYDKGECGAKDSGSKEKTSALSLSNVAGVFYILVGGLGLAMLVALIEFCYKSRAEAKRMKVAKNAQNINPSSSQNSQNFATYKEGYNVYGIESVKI
Sequence (P42263 29-894 isoform P42263-2 limits assumed): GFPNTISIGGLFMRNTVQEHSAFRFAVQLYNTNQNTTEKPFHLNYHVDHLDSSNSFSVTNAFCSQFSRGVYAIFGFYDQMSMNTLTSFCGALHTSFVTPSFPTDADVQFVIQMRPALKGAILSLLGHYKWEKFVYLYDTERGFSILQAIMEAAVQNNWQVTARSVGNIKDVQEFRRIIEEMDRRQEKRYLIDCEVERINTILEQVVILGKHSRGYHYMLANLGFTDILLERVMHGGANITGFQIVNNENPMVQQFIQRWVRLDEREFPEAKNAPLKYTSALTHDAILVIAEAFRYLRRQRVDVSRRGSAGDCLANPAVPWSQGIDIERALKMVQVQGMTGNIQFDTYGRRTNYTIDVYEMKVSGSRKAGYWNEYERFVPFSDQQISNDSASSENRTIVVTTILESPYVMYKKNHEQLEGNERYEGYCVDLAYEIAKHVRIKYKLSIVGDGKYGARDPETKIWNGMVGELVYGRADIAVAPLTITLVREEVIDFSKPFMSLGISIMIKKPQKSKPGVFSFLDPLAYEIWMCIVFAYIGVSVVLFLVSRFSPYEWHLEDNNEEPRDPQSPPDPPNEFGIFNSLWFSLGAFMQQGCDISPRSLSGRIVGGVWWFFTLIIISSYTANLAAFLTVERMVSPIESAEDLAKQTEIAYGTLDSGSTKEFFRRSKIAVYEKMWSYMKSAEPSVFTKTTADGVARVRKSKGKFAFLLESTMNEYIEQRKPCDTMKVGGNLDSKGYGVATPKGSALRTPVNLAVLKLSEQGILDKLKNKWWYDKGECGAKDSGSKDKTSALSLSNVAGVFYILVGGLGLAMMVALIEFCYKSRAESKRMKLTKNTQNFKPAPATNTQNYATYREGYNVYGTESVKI
Assay: Whole-cell patch-clamp electrophysiology, heteromeric GluA2/3 expressed in HEK293 cells
Assay type: cell-based
Conditions: whole-cell normalized peak amplitude, Hill fit, unit printed in the text, not in Table S6, read-out: IC50
propertyMeasured: IC50 (µM)

| molecule | studySystem | IC50 / µM |
| --- | --- | --- |
| O=C(CCCCC1CCSS1)OCCCO (centres unmarked) [LA1, 1-Hydroxy-3-Lipo Ester] | GluA2/3 AMPA receptor subunits (flip isoform) (Homo sapiens, UniProt P42262+P42263) | 3.8 |
| O=C(CCCCC1CCSS1)OCCCCCCO[N+](=O)[O-] (centres unmarked) | GluA2/3 AMPA receptor subunits (flip isoform) (Homo sapiens, UniProt P42262+P42263) | 4.46 |
| O=C(CCCCC1CCSS1)OCCCO[N+](=O)[O-] (centres unmarked) | GluA2/3 AMPA receptor subunits (flip isoform) (Homo sapiens, UniProt P42262+P42263) | 3.61 |
| O=C(CCCCC1CCSS1)OCCCCCCO (centres unmarked) [LA4, 1-Hydroxy-6-Lipoester] | GluA2/3 AMPA receptor subunits (flip isoform) (Homo sapiens, UniProt P42262+P42263) | 4.76 |
| O=C(O)CCCCC1CCSS1 (stereo not drawn) [α-LA, alpha-Lipoic acid, reference compound] | GluA2/3 AMPA receptor subunits (flip isoform) (Homo sapiens, UniProt P42262+P42263) | 4.01 |
